B1: MED27 (parent)
chain: YNENVYTEDGKLDIWSKSNYQVFQ

# Variants of: B1
# assay_name: protein stability index of a GFP-peptide fusion (GPS, HEK-293T) (PSI 1-6); higher = more stable;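 also: lentivirally expressed fusions sorted by FACS into six bins by GFP to DsRed ratio, PSI derived from sequencing read proportions per bin multiplied by bin number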
# run_parameters: c terminus: a fixed tail appended
Listed here are variants together with their documented protein stability index.
Form field (numeric): enter value without unit.

Worked examples, 4 variants total:
Problem: What value of measured protein stability index is listed for `E8Y` ?
Result: 1.97

Problem: Now try `S18A` .
Result: 2.34

Problem: // repeat for `V22R` and report
Result: 2.21

Problem: Follow-up entry: `N19Q`
Result: 2.26

***
Problem: Dear colleague, I am looking for the recorded protein stability index of the following variant: `V5W`
Result: 1.91

Problem: Another: `Q21N`
Result: 2.04

Problem: Now the same for `I14K`
Result: 2.71

Problem: Input `K11V`
Result: 2.04

Problem: Now consider `N4H` and answer again.
Result: 2.04

Problem: Same for `S18M`
Result: 2.21

Problem: And for `N4M` ?
Result: 2

Problem: Another variant: `S16A`
Result: 2.45

Problem: Same read-out for `V22N` ?
Result: 2.41

Problem: Continue with `D9R`
Result: 1.7

Problem: How about `W15A` ?
Result: 4.13

Problem: Can you handle `Q21A` next?
Result: 2.46
